Hi there, I'd appreciate the recorded inhibition for every entry that follows.
- Protocol Text: NOD1 signaling inhibitors, primary screen, cell-based, luminescence, uHTS (AID 1578);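 further: HEK-293T reporter cells stimulated with the NOD1 agonist gamma-tri-DAP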
- Run Parameters: NOD1-driven NF-kB luciferase reporter cells, at 4 µM, active compounds read high
Among all 290,000 compounds or so, about 3,000 (1%) were called active. The entries come from a sample that favours actives as a whole.
Respond with the bare value in %.

Bench note: what inhibition did `O=S(=O)(c1ccc(F)cc1)c1snnc1-c1ccccc1` show?
24.9

Bench note: what inhibition did `COc1ccccc1Nc1ncnc2sccc12` show?
-5.2

Bench note: what inhibition did `c1ccc(-c2nnsc2-c2ccccc2)cc1` show?
6.7

Bench note: what inhibition did `COc1ccc(OCC(=O)NNC(=S)NC(=O)c2ccc(Br)o2)cc1` show?
-38.4

Bench note: what inhibition did `CCNC(=O)Nc1cc2nc(C)n(Cc3ccc(Br)cc3)c2nc1C` show?
24.1

Bench note: what inhibition did `Cc1ccccc1S(=O)(=O)Cc1ccc(C(=O)N2CCN(c3ccccc3F)CC2)o1` show?
21.3

Bench note: what inhibition did `Cc1cc(Cl)cc(Cl)c1OCC(=O)NCc1ccco1` show?
20.4

Bench note: what inhibition did `Cc1nnsc1S(=O)(=O)c1ccccc1` show?
-10.8

Bench note: what inhibition did `CN(Cc1cccnc1)C(=O)c1cc(COc2ccc3c(c2)CCCC3)on1` show?
-46.9

Bench note: what inhibition did `COc1ccc(Oc2nccc(OC)c2C#N)cc1` show?
-18.4

Bench note: what inhibition did CC(=O)c1cccc(OCC(O)CNCC2COc3ccccc3O2)c1 (configuration not stated) show?
37.9

Bench note: what inhibition did `O=C(Nc1ccon1)c1ccc(S(=O)(=O)N2CCOCC2)cc1` show?
-5.1

Bench note: what inhibition did `CCOC(=O)N/N=C/c1cn(CCCOc2ccccc2)c2ccccc12` show?
79.6

Bench note: what inhibition did COC(=O)C1C2C=CC3(CN(CCc4ccccc4)C(=O)C13)O2 (configuration not stated) show?
-14.5

Bench note: what inhibition did CC1CN(C(=O)CCC(=O)NCCCN2C(C)CCCC2C)c2ccccc2O1 (configuration not stated) show?
26.4

Bench note: what inhibition did `CCNC(=S)N(Cc1cc2cc(C)c(C)cc2[nH]c1=O)C1CCCC1` show?
-35

Bench note: what inhibition did `Cc1ccc(S(=O)(=O)Cc2ccc(C(=O)N3CCN(c4cccc(C)c4C)CC3)o2)cc1` show?
27.1

Bench note: what inhibition did `CCn1cc(/C=N/NC(=O)c2cc3c(ccc4ccccc43)o2)c2ccccc21` show?
32

Bench note: what inhibition did `COc1ccc(CNCc2cccc(Oc3ccccc3)c2)cc1` show?
65.8

Bench note: what inhibition did `Cc1ccccc1CN1CCc2cc([N+](=O)[O-])ccc21` show?
58.2

Bench note: what inhibition did `O=C(O)c1ccc(CNCc2cccc(Oc3ccccc3)c2)cc1` show?
-4.9

Bench note: what inhibition did `CC(C)OC(=O)CC(=O)CSc1nc2c(cc1C#N)CCCCC2` show?
-26.3

Bench note: what inhibition did `O=C(CSc1nnc(NC2CCCCC2)s1)Nc1ccc2c(c1)C(=O)c1ccccc1C2=O` show?
-43.3

Bench note: what inhibition did CN(C)c1ccc(NC(=O)C(=O)C2C(=O)Nc3ccccc32)cc1 (configuration not stated) show?
-9.3

Bench note: what inhibition did `COc1ccc(CNc2ncnc3cc(OC)c(OC)cc23)cc1OC` show?
-17

Bench note: what inhibition did `Cc1ccc(C(=O)n2nc(-c3ccco3)nc2N)cc1` show?
-20.6

Bench note: what inhibition did `CCC(=O)Nc1nc2ccc3sc(C)nc3c2s1` show?
17.2

Bench note: what inhibition did CN1CCN(c2nc3ccccc3nc2C(C#N)S(=O)(=O)c2ccccc2)CC1 (configuration not stated) show?
-5.2

Bench note: what inhibition did `CC(C)OC(=O)CC(=O)CSc1nc2c(cc1C#N)CCCCCC2` show?
-24.1

Bench note: what inhibition did `NC(=O)c1cc2cc(Cl)ccc2oc1=Nc1cccc(C(F)(F)F)c1` show?
-9.4

Bench note: what inhibition did `COc1ccccc1CNCc1cccc(Oc2ccccc2)c1` show?
-7.9

Bench note: what inhibition did `O=C(COC(=O)c1ccco1)NC1CCCC1` show?
-23.8
